Biological target: hCA I (Homo sapiens)
Construct: gene CA1; recombinant, obtained in-house as reported earlier; cytosolic isoform
Sequence (P00915 2-261): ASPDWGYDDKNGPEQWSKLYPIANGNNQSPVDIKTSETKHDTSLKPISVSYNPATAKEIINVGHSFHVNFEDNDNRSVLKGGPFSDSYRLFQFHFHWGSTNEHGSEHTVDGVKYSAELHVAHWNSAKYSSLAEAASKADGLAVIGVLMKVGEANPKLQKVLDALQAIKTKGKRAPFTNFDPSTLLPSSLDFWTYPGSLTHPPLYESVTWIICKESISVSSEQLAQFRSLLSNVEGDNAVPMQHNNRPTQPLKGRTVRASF
Test: stopped-flow CO2 hydration assay
Assay type: biochemical
test.readout: Ki

Consider the following illustrative entries.
O=S(=O)(Nc1nc2ccccc2[nH]1)c1ccc2nc(Nc3nc4ccccc4[nH]3)sc2c1 [9d]	> 100000 nM
O=S(=O)(NC1=NC2CCCCC2N1)c1ccc2nc(NC3=NC4CCCCC4N3)sc2c1 (stereo not drawn) [9c]	> 100000 nM

The measured Ki associated with O=S(=O)(NC1=NCCN1)c1ccc2nc(NC3=NCCN3)sc2c1 [9a] reads > 100000 nM
